Listed next: entries and their corresponding 3' UTR reporter interaction score.
test system: MYT1L; assay: 3' UTR reporter interaction score (median-centred robust z-score of log2 firefly/Renilla activity); higher = less repression of the 3' UTR reporter; conditions: HEK293T; 48 h
Number only, please.

// below: answered sequences
In [3]: df
Out[3]:
               input_sequence  measurement
0       CAUUAUUACUUUUGGUACGCG       -0.409
1      UGGUUGACCAUAGAACAUGCGC         3.19
2       AGGGUAAGCUGAACCUCUGAU        0.432
3       GGUAGAUUCUCCUUCUAUGAG         1.11
4      AGAUCGACCGUGUUAUAUUCGC        -1.38
5       AAUAUAACACAGAUGGCCUGU       -0.827
6      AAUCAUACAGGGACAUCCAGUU        0.474
7  GUUGGAGGAUGAAAGUACGGAGUGAU       -0.433
8     UGUCACUCGGCUCGGCCCACUAC        0.664
9   GCUGGGCAGGGCUUCUGAGCUCCUU         -0.4

Input line: Supply recorded 3' UTR reporter interaction score for "UCUUGGAGUAGGUCAUUGGGUGG" here.
Output line: -0.548

Input line: Provide one value: measured 3' UTR reporter interaction score of "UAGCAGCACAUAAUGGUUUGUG"
Output line: -2.1

Input line: Name the recorded 3' UTR reporter interaction score of the item "GGCUAGCAACAGCGCUUACCU" in your answer.
Output line: 0.317

Input line: Look up and report measured 3' UTR reporter interaction score for this entry: "UACUCAGGAGAGUGGCAAUCACA"
Output line: -0.715

Input line: Provide measured 3' UTR reporter interaction score value, entry: "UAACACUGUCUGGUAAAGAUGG"
Output line: -4.79

Input line: Recall and state the measured 3' UTR reporter interaction score for "UAAGGUGCAUCUAGUGCAGAUA" .
Output line: 0.136

Input line: Please report 3' UTR reporter interaction score for the following sequence: "ACCAUCGACCGUUGAUUGUACC"
Output line: -2.64

* * *

system: HRAS; assay: 3' UTR reporter interaction score (median-centred robust z-score of log2 firefly/Renilla activity); higher = less repression of the 3' UTR reporter; details: HEK293T; 48 h
In this section, each of the sequences is paired with its reported 3' UTR reporter interaction score.
Answer field: number only, no words.

In [3]: df
Out[3]:
             input_sequence  test_system  measurement
0   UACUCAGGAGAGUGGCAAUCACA         HRAS        -0.17
1   AGCAGCAUUGUACAGGGCUAUCA         HRAS        0.106
2  UGCCUGGGUCUCUGGCCUGCGCGU         HRAS        -1.95
3    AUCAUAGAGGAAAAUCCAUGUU         HRAS       -0.664
4    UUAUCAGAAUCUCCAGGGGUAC         HRAS        0.803

Input line: Write down 3' UTR reporter interaction score measured for item "AGGGGGAAAGUUCUAUAGUCCU"
Output line: 0.225

Input line: Tell us which 3' UTR reporter interaction score value is on record for "UAAGUGCUUCCAUGUUUUAGUAG"
Output line: 0.314

Input line: Find the measured 3' UTR reporter interaction score of "UCAGUGCACUACAGAACUUUGU" and report it.
Output line: -0.763

Input line: Please look at this sequence and report its 3' UTR reporter interaction score: "GUUCAAAUCCAGAUCUAUAAC"
Output line: -0.14

Input line: For the sequence "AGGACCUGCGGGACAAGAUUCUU" , give its measured 3' UTR reporter interaction score value.
Output line: -0.0697

Input line: Identify measured 3' UTR reporter interaction score corresponding to "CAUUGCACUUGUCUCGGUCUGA"
Output line: -0.416

Input line: Item "GGCAGGUUCUCACCCUCUCUAGG" : provide 3' UTR reporter interaction score
Output line: 0.517

Input line: Retrieve 3' UTR reporter interaction score measured for "AUCACACAAAGGCAACUUUUGU" and print it.
Output line: -0.777

Input line: Report measured 3' UTR reporter interaction score; entry is "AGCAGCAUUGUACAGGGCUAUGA"
Output line: -0.255

Input line: Identify 3' UTR reporter interaction score associated with the sequence "UCCAGUACCACGUGUCAGGGCCA"
Output line: 0.159

* * *

Below is a list of entries, each paired with its recorded 3' UTR reporter interaction score value.
test system: ZEB2; experiment: 3' UTR reporter interaction score (median-centred robust z-score of log2 firefly/Renilla activity); higher = less repression of the 3' UTR reporter; conditions: HEK293T; 48 h

Input line: Identify measured 3' UTR reporter interaction score corresponding to "UGUGACUGGUUGACCAGAGGG"
Output line: 1.2

* * *

test system: TP53; assay: 3' UTR reporter interaction score (median-centred robust z-score of log2 firefly/Renilla activity); higher = less repression of the 3' UTR reporter; details: HEK293T; 48 h
observed property: 3' UTR reporter interaction score
The reply should be a number, written without any unit.

For orientation, consider the following solved cases.
            input_sequence                  observed_property  measurement
0    UUGGCCACAAUGGGUUAGAAC  3' UTR reporter interaction score       -0.693
1   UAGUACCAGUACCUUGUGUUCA  3' UTR reporter interaction score       -0.292
2  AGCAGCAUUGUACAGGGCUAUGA  3' UTR reporter interaction score        0.727

Input line: Tell me 3' UTR reporter interaction score of "UCUAGUAAGAGUGGCAGUCG" when tested on TP53.
Output line: 0.771

Input line: Write 3' UTR reporter interaction score of "UGGAGGAGAAGGAAGGUGAUG" ; system used: TP53
Output line: -0.557

Input line: Report 3' UTR reporter interaction score from TP53 testing of "GCUAGUCCUGACUCAGCCAGU"
Output line: -0.219

Input line: State recorded 3' UTR reporter interaction score with TP53, entry "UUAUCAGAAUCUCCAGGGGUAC" , no comment.
Output line: -0.646

Input line: With TP53 as the test system, provide measured 3' UTR reporter interaction score for this sequence: "UGUUUGCAGAGGAAACUGAGAC"
Output line: -0.173

* * *

system: MYC; assay: 3' UTR reporter interaction score (median-centred robust z-score of log2 firefly/Renilla activity); higher = less repression of the 3' UTR reporter; details: HEK293T; 48 h
observed property: 3' UTR reporter interaction score

Worked set:
In [3]: df
Out[3]:
             input_sequence  measurement
0   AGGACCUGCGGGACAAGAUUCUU      -0.0464
1     UAGGUAGUUUCCUGUUGUUGG       -0.416
2  CAAAGUGCUUACAGUGCAGGUAGU        0.444
3    UUGUACAUGGUAGGCUUUCAUU         1.21
4   UAGCACCAUUUGAAAUCAGUGUU        0.295
5  AGCUACAUCUGGCUACUGGGUCUC        0.941
6    CUGGACUUGGAGUCAGAAGGCC       -0.585

Now for a further sequence.
Input line: State, in one line, measured 3' UTR reporter interaction score of "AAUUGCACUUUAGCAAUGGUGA"
Output line: 0.3

* * *

tested on: MYT1L; experiment: 3' UTR reporter interaction score (median-centred robust z-score of log2 firefly/Renilla activity); higher = less repression of the 3' UTR reporter; conditions: HEK293T; 48 h
Please mark true (1) if the recorded 3' UTR reporter interaction score is equal to or greater than 0.03, and false (0) if it falls below.

            input_sequence     class
0  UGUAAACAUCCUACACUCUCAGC  true (1)

Input line: Determine whether this sequence has 3' UTR reporter interaction score no lower than 0.03: "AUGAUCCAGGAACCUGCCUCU"
Output line: false (0)

Input line: Check if 3' UTR reporter interaction score >= 0.03 (inclusive). Item: "UAGCACCAUUUGAAAUCGGU"
Output line: false (0)

Input line: // inclusive: 3' UTR reporter interaction score at least 0.03? input: "UUGGUCCCCUUCAACCAGCUGU"
Output line: true (1)

Input line: Given "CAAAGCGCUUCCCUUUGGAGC" , state whether its 3' UTR reporter interaction score is at least 0.03.
Output line: false (0)

Input line: Test whether the sequence "GAGUGCCUUCUUUUGGAGCGU" records 3' UTR reporter interaction score of 0.03 or higher.
Output line: true (1)

Input line: Item "CAAGAACCUCAGUUGCUUUUGU" with 3' UTR reporter interaction score of 0.03 or above?
Output line: false (0)

Input line: Threshold query (3' UTR reporter interaction score >= 0.03) on "AAAGCGCUUCCCUUUGCUGGA"
Output line: true (1)
